Measured Percent Control values are reported for all entries that follow.
tested on: ABL1(F317I)-phosphorylated; conditions: Compound Concentration (nM):1000;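 note: KINOMEscan scanMAX binding as percent activity remaining versus control; lower means stronger binding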
Give the number; % is assumed, so skip it.

1. O=C1Nc2ccc(C(=O)c3ccco3)cc2C1=Cc1cc(Cl)c(O)c(Cl)c1 [GW406108X] | 79
2. CCc1ccc(Oc2nccc(-c3c(-c4ccc(F)cc4)ncn3C3CCNCC3)n2)cc1 | 80

Next:
### Prompt Entry COc1cc2ncnc(Nc3ccc4c(cnn4Cc4ccccc4)c3)c2cc1OC.Cl [GW282449A] : reported Percent Control = ?
### Response 81

---

Measured Percent Control values are reported for all entries that follow.
tested on: SNARK; construct: gene NUAK2; settings: Compound Concentration (nM):1000
Give the number; % is assumed, so skip it.

Look over these answered cases.
1) Cc1cc(O)cc(C)c1/C=C/c1cncc(C(N)=O)c1 [GW435821X] | 92
2) NS(=O)(=O)c1ccc(N/N=C2\C(=O)Nc3ccc(Cl)cc32)cc1 [GW280670X] | 91

Next:
### Prompt Entry COc1ccccc1-c1cc(/C=C2\C(=O)Nc3ncc(Br)cc32)cc(Br)c1O [GW442130X] : reported Percent Control = ?
### Response 89

---

tested on: ULK3; settings: Compound Concentration (nM):1000
measured_attribute: Percent Control (%)
Give the number; % is assumed, so skip it.

1) NS(=O)(=O)c1ccc(N/N=C2\C(=O)Nc3ccc(C(=O)NCc4ccncc4)cc32)cc1 [GW300657X] | 31
2) COc1ccc2c(-c3ccnc(Nc4cccc(OC(F)(F)F)c4)n3)cnn2n1 [GW810372X] | 100
3) Cl.c1ccc(Cc2nc3ccc(Nc4ncnc5ccccc45)cc3[nH]2)cc1 [GR269666A] | 93

### Prompt Entry COc1cc2ncnc(Nc3ccc4c(cnn4Cc4ccccc4)c3)c2cc1OC.Cl [GW282449A] : reported Percent Control = ?
### Response 100

### Prompt Entry NS(=O)(=O)c1ccc(Nc2ncc(-c3ccccc3)o2)cc1 [GW572399X] : reported Percent Control = ?
### Response 88

---

system: YES; construct: gene YES1; details: Compound Concentration (nM):1000
measured_attribute: Percent Control (%)
Give the number; % is assumed, so skip it.

1. C[C@@H](Oc1cc(-n2cnc3ccc(OC4CCN(C)CC4)cc32)sc1C(N)=O)c1ccccc1Cl [GSK579289A] | 87
2. COc1cc(N2CCN(C(C)C)CC2)ccc1Nc1nc(Nc2ccc(F)cc2C(=O)NC[C@@H](O)CO)c2cc[nH]c2n1 [GSK1392956A] | 99
3. COC(=O)Nc1nc2ccc(Oc3ccc(NC(=O)Nc4cc(C(F)(F)F)ccc4F)cc3)cc2s1.Cl [GW693917A] | 51
4. COc1cc2ncnc(Nc3ccc4c(cnn4Cc4ccccc4)c3)c2cc1OC.Cl [GW282449A] | 67
5. COc1ccc2c(-c3ccnc(Nc4cccc(OC(F)(F)F)c4)n3)cnn2n1 [GW810372X] | 100
6. CN(C)c1cc2c(Nc3ccc4c(cnn4Cc4ccccc4)c3)ncnc2cn1 [GW282974X] | 67
7. CC(C)COC(=O)c1ccc2c(c1)/C(=C/Nc1ccc(S(N)(=O)=O)cc1)C(=O)N2 [GW416981X] | 100
8. Cl.O=C(O[C@H]1CN[C@H](C#Cc2cc3ncnc(Nc4ccc5c(cnn5Cc5ccccc5)c4)c3s2)C1)N1CCOCC1 [GSK200398A] | 98

### Prompt Look up Percent Control with YES for this compound: COc1ccc2cc(-c3c(-c4ccncc4)nc(-c4ccc(S(C)(=O)=O)cc4C)n3C)ccc2c1
### Response 46

### Prompt Look up Percent Control with YES for this compound: NS(=O)(=O)c1ccc(N/N=C2\C(=O)Nc3ccc(Cl)cc32)cc1 [GW280670X]
### Response 100

### Prompt Look up Percent Control with YES for this compound: CN(C)CCNC(=O)Nc1ccc(N(C)c2ccnc(Nc3ccc(CS(C)(=O)=O)cc3)n2)cc1.Cl [GW830900A]
### Response 77

Cited source for all entries: paper PMC7826789
